- Target Of Assay: SLS, SLAS common ancestor (node 34) (synthetic construct)
- Experimental Details: Type I difference spectral titration
- Assay type: binding
- Condition Parameters: read-out: Ks/mM
Measured Parameter: Kd (mM)

COC(=O)C1=CO[C@@H](O[C@@H]2O[C@H](CO)[C@@H](O)[C@H](O)[C@H]2O)[C@@H]2[C@@H](C)[C@@H](O)C[C@H]12 : 2.3

---

- Target Of Assay: CYP72A565 (Camptotheca acuminata, UniProt A0A4Y5UJ61, H131F/H132D)
- Construct: full-length ORF, C-terminal His6, in pCWori, expressed in E. coli, purified; kinetics with Camptotheca CPR1 and DLPC
- Sequence (A0A4Y5UJ61 entry or part of it H131F/H132D): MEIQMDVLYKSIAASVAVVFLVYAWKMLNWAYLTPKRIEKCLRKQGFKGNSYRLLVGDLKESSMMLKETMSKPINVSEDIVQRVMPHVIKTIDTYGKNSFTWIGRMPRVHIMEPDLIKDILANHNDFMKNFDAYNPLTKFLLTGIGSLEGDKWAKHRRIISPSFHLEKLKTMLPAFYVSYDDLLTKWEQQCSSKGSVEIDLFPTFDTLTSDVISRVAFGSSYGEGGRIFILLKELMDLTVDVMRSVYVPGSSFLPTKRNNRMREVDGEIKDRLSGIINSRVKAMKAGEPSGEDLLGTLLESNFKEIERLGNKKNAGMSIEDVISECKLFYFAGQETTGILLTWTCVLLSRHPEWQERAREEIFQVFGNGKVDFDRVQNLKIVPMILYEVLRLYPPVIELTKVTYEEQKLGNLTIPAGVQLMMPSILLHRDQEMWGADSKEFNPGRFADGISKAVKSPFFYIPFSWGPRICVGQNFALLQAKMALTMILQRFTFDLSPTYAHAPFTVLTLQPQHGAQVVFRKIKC
- Experimental Details: Type I difference spectral titration
- Assay type: binding
- Condition Parameters: read-out: Ks/mM
Measured Parameter: Kd (mM)

COC(=O)C1=CO[C@@H](O[C@@H]2O[C@H](CO)[C@@H](O)[C@H](O)[C@H]2O)[C@@H]2[C@@H](C)[C@@H](O)C[C@H]12 : 0.345
